ASSAY_COMMENT: in vitro
Parameters: species or system HB2, CCD841
ASSAY_SETUP: human, hek293 cells
EXPERIMENTAL_READOUT: viability at 48 h, 10 µM (%)
Give the quantity in %, number only.

Prompt: Kindly indicate its recorded viability at 48 h, 10 µM. Item: O=C(CCl)NC(=O)Nc1ccccc1F [PCM-0102376]
Response: 67.8

Prompt: Kindly indicate its recorded viability at 48 h, 10 µM. Item: O=C(CCl)N1CCN(Cc2ccc3c(c2)OCCO3)CC1 [PCM-0102386]
Response: 39.1

Prompt: Kindly indicate its recorded viability at 48 h, 10 µM. Item: CC(C)(C)c1cc(NC(=O)CCl)n(-c2ccccc2)n1 [PCM-0102536]
Response: 10.6

Prompt: Kindly indicate its recorded viability at 48 h, 10 µM. Item: O=C(CCl)NC(=O)c1ccco1 [PCM-0102195]
Response: 87.3

Prompt: Kindly indicate its recorded viability at 48 h, 10 µM. Item: C=CC(=O)N1CC(OC(=O)NC(C)C)C1 [PCM-0102728]
Response: 110

Prompt: Kindly indicate its recorded viability at 48 h, 10 µM. Item: O=C(CCl)Nc1cccc(Cl)c1Cl [PCM-0102797]
Response: 40.9

Prompt: Kindly indicate its recorded viability at 48 h, 10 µM. Item: CN(Cc1ccc(Cl)cc1)C(=O)CCl [PCM-0102344]
Response: 2.1

Prompt: Kindly indicate its recorded viability at 48 h, 10 µM. Item: C=CC(=O)N1CCCN(C(=O)c2cc(Cl)cn2C)CC1 [PCM-0103003]
Response: 96.7

Prompt: Kindly indicate its recorded viability at 48 h, 10 µM. Item: C=CC(=O)NC1(c2nnc[nH]2)CCC1 [PCM-0102722]
Response: 105

Prompt: Kindly indicate its recorded viability at 48 h, 10 µM. Item: Cc1nc(C2(NC(=O)CCl)CCCCC2)no1 [PCM-0102983]
Response: 99.7

Prompt: Kindly indicate its recorded viability at 48 h, 10 µM. Item: C=CC(=O)N1Cc2ccccc2CC1c1nnc(CC)o1 (centres unmarked) [PCM-0103005]
Response: 93.2

Prompt: Kindly indicate its recorded viability at 48 h, 10 µM. Item: C=CC(=O)N1CCN(C(=O)Nc2ccc(C)c(Cl)c2)CC1 [PCM-0102604]
Response: 91.5

Prompt: Kindly indicate its recorded viability at 48 h, 10 µM. Item: Cc1ccccc1CC(=O)NNC(=O)CCl [PCM-0102829]
Response: 104

Prompt: Kindly indicate its recorded viability at 48 h, 10 µM. Item: CN(CC1CC1)C(=O)CCl [PCM-0102714]
Response: 88.3

Prompt: Kindly indicate its recorded viability at 48 h, 10 µM. Item: C=CC(=O)N1CCC(n2ccc(C(F)(F)F)n2)CC1 [PCM-0102435]
Response: 85.7

Prompt: Kindly indicate its recorded viability at 48 h, 10 µM. Item: Cc1ccc(C(C)NC(=O)CCl)cc1C (centres unmarked) [PCM-0102270]
Response: 67.9

Prompt: Kindly indicate its recorded viability at 48 h, 10 µM. Item: O=C(CCl)N1CCC(C(=O)N2CCCC2)CC1 [PCM-0102655]
Response: 87

* * *

Please go through the items and note down their OTUB2.
TARGET_OR_TEST_SYSTEM: OTUB2 (OTUB2A) (Homo sapiens)
Construct: full length residues 1-234, E. coli BL21(DE3)-R3, His tag removed by TEV, construct 27312 Da
Sequence (Q96DC9 whole entry, the tested form may be a part): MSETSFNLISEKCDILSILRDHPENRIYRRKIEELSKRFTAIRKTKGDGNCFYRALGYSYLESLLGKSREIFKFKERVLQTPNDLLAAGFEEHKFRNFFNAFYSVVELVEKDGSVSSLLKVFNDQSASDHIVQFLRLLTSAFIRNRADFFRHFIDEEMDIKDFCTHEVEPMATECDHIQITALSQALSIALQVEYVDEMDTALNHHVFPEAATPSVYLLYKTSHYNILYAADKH
Parameters: Intact protein LC/MS covalent labelling, fragments in pools of five, 200 uM each, 4 °C
ASSAY_SETUP: 24 h, 4 °C, pool of five; 200 µM; covalent
Procedure: Incubations were performed at 200 μM for each compound and 2 μM of protein (10 μM for BSA) for 24 h at 4 °C with moderate shaking. […] Following incubation, we used intact protein [compound left out] chromatography/mass spectrometry (LC/MS) to identify the fragments and quantify their labeling (Figure 3A). […]
Respond using a number only.

Prompt: Give OTUB2 only, for CC(NC(=O)CCl)c1ccc(F)cc1 (stereo not shown) [PCM-0102228] , using OTUB2 (OTUB2A) (Homo sapiens) data.
Response: 0.2

Prompt: Give OTUB2 only, for N#CCN(C(=O)CCl)c1ccccc1 [PCM-0102471] , using OTUB2 (OTUB2A) (Homo sapiens) data.
Response: 0.19

Prompt: Give OTUB2 only, for C=CC(=O)NCC1CCN(C)c2ccccc21 (stereo not shown) [PCM-0102644] , using OTUB2 (OTUB2A) (Homo sapiens) data.
Response: 0

Prompt: Give OTUB2 only, for CN(Cc1cccc(C(F)(F)F)c1)C(=O)CCl [PCM-0102987] , using OTUB2 (OTUB2A) (Homo sapiens) data.
Response: 0

Prompt: Give OTUB2 only, for CC(=O)N1CCc2cc(NC(=O)CCl)ccc21 [PCM-0102129] , using OTUB2 (OTUB2A) (Homo sapiens) data.
Response: 0.31

Prompt: Give OTUB2 only, for CC(C)CNC(=O)NC(=O)CCl [PCM-0102502] , using OTUB2 (OTUB2A) (Homo sapiens) data.
Response: 0

Prompt: Give OTUB2 only, for C=CC(=O)Nc1ccc(C)cn1 [PCM-0102627] , using OTUB2 (OTUB2A) (Homo sapiens) data.
Response: 0

Prompt: Give OTUB2 only, for C=CC(=O)Nc1ccc(Br)cc1 [PCM-0102191] , using OTUB2 (OTUB2A) (Homo sapiens) data.
Response: 0

Prompt: Give OTUB2 only, for CC(NC(=O)CCl)c1ccco1 (stereo not shown) [PCM-0102798] , using OTUB2 (OTUB2A) (Homo sapiens) data.
Response: 0.19

Prompt: Give OTUB2 only, for C=CC(=O)N(C)C1CCCCNC1=O (stereo not shown) [PCM-0102484] , using OTUB2 (OTUB2A) (Homo sapiens) data.
Response: 0.11

Prompt: Give OTUB2 only, for O=C(CCl)N1CCC(Cc2ccccc2)CC1 [PCM-0102492] , using OTUB2 (OTUB2A) (Homo sapiens) data.
Response: 0.18

Prompt: Give OTUB2 only, for C=CC(=O)N1CCN(C(=O)Nc2ccc(C)c(Cl)c2)CC1 [PCM-0102604] , using OTUB2 (OTUB2A) (Homo sapiens) data.
Response: 0

Prompt: Give OTUB2 only, for C=CC(=O)N(C1CC1)C1CC(=O)NC1=O (stereo not shown) [PCM-0102646] , using OTUB2 (OTUB2A) (Homo sapiens) data.
Response: 0

Prompt: Give OTUB2 only, for O=C(CCl)Nc1ccc2c(c1)CCC2 [PCM-0102662] , using OTUB2 (OTUB2A) (Homo sapiens) data.
Response: 0.14

Prompt: Give OTUB2 only, for C=CC(=O)NC1CCC(N2CCCS2(=O)=O)CC1 (stereo not shown) [PCM-0102568] , using OTUB2 (OTUB2A) (Homo sapiens) data.
Response: 0

Prompt: Give OTUB2 only, for COc1ccc(C2=CCN(C(=O)CCl)CC2)cc1 [PCM-0102929] , using OTUB2 (OTUB2A) (Homo sapiens) data.
Response: 0

Prompt: Give OTUB2 only, for C=CC(=O)Nc1ccc(N2CCCC2=O)cc1 [PCM-0102145] , using OTUB2 (OTUB2A) (Homo sapiens) data.
Response: 0

Prompt: Give OTUB2 only, for CN(Cc1ccc(Cl)s1)C(=O)CCl [PCM-0102898] , using OTUB2 (OTUB2A) (Homo sapiens) data.
Response: 0

Prompt: Give OTUB2 only, for C=CC(=O)NC1(c2nnc[nH]2)CCC1 [PCM-0102722] , using OTUB2 (OTUB2A) (Homo sapiens) data.
Response: 0

Prompt: Give OTUB2 only, for O=C(CCl)N1N=C(c2ccco2)CC1c1cccs1 (stereo not shown) [PCM-0102182] , using OTUB2 (OTUB2A) (Homo sapiens) data.
Response: 0

Prompt: Give OTUB2 only, for C=CC(=O)NCc1cccc(C(F)(F)F)c1 [PCM-0102825] , using OTUB2 (OTUB2A) (Homo sapiens) data.
Response: 0

Prompt: Give OTUB2 only, for Cc1csc(N(C(=O)CCl)c2ccccc2)n1 [PCM-0102265] , using OTUB2 (OTUB2A) (Homo sapiens) data.
Response: 0.06

Prompt: Give OTUB2 only, for C=CC(=O)Nc1cc(C)on1 [PCM-0102805] , using OTUB2 (OTUB2A) (Homo sapiens) data.
Response: 0

Prompt: Give OTUB2 only, for CC(C)(C)CCNC(=O)CCl [PCM-0102853] , using OTUB2 (OTUB2A) (Homo sapiens) data.
Response: 0

Prompt: Give OTUB2 only, for CS(=O)(=O)c1ccc(Cl)c(NC(=O)CCl)c1 [PCM-0102220] , using OTUB2 (OTUB2A) (Homo sapiens) data.
Response: 0

Prompt: Give OTUB2 only, for O=C(CCl)Nc1ccc(N2CCCC2=O)cc1 [PCM-0102915] , using OTUB2 (OTUB2A) (Homo sapiens) data.
Response: 0.49

Prompt: Give OTUB2 only, for C=CC(=O)N1CCCC(c2nncn2C2CC2)C1 (stereo not shown) [PCM-0102567] , using OTUB2 (OTUB2A) (Homo sapiens) data.
Response: 0

Prompt: Give OTUB2 only, for O=C(CCl)NNC(=O)c1cc2c(s1)CCCC2 [PCM-0102142] , using OTUB2 (OTUB2A) (Homo sapiens) data.
Response: 1
